# assayed system: plasma purified human complement protein C3 (human) (UniProt P01024)
# Sequence (P01024 23-667, chain 1 of 2): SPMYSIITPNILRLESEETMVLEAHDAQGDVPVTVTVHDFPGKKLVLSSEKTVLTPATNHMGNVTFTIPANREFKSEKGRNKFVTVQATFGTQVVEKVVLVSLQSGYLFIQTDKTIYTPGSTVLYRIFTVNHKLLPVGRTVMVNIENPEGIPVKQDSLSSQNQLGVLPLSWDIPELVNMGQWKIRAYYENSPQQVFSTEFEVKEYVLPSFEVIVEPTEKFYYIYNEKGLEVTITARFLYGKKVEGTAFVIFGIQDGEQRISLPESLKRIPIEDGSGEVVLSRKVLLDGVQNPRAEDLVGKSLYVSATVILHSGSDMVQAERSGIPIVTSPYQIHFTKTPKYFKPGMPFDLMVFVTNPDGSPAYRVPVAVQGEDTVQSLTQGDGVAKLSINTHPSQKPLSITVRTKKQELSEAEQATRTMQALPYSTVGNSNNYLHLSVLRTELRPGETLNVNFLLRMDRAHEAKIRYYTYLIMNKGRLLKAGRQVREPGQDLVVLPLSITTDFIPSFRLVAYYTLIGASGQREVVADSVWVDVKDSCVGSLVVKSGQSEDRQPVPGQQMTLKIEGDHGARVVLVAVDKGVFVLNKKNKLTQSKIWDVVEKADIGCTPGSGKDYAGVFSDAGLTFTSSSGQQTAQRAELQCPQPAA
# Sequence (P01024 672-1663, chain 2 of 2): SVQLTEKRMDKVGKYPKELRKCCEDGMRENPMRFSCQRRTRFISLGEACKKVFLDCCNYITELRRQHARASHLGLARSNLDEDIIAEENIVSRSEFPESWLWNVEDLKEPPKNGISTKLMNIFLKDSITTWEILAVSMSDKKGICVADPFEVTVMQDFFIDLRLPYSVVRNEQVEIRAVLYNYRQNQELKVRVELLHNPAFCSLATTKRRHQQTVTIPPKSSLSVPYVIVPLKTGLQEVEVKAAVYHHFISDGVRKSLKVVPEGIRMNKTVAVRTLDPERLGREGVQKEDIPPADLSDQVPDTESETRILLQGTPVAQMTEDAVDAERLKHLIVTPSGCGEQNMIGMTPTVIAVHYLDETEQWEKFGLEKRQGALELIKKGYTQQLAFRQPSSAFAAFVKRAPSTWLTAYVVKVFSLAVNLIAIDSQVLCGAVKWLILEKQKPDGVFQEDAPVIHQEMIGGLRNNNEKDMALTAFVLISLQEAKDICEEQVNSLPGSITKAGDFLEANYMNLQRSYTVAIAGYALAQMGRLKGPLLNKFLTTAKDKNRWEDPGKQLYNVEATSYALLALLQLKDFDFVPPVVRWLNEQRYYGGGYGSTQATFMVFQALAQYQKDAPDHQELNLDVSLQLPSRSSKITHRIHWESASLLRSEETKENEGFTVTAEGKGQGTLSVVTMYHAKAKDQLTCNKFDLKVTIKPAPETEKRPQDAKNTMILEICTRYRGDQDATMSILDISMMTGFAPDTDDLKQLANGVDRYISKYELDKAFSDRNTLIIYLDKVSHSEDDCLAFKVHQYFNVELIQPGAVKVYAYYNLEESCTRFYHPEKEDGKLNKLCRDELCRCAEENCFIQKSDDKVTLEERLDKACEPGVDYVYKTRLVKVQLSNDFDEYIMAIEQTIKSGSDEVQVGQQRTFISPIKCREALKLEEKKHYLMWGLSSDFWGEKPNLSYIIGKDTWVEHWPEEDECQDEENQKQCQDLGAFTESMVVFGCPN
# assay info: cell-based or functional assay
measurement type: EC50 hC3 cleavage (nM)
Numbers only; they are read as nM.

binder: MTSP-1 protease domain Q38E/I41S/D60bV/F60eK/Y60gW/D96P/F97N/T98G/F99L/C122S/G151N/Q175L/Q192D (enzyme) VVGGTDADEGEWPWQVSLHALGEGHSCGASLISPNWLVSAAHCYIDVRGKRWSDPTQWTAFLGLHDQSQRSAPGVQERRLKRIISHPFFNPNGLDYDIALLELEKPAEYSSMVRPISLPDASHVFPAGKAIWVTGWGHTQYGGTNALILQKGEIRVINQTTCENLLPQLITPRMMCVGFLSGGVDSCDGDSGGPLSSVEADGRIFQAGVVSWGDGCAQRNKPGVYTRLPLFRDWIKENTGV
EC50 hC3 cleavage, nM: 45.9

**Q:** What measured EC50 hC3 cleavage goes with MTSP-1 protease domain Q38E/I41S/D60bV/F60eK/Y60gW/D96M/F97N/T98G/F99L/C122S/G151N/Q175L/Q192D (enzyme) VVGGTDADEGEWPWQVSLHALGEGHSCGASLISPNWLVSAAHCYIDVRGKRWSDPTQWTAFLGLHDQSQRSAPGVQERRLKRIISHPFFNMNGLDYDIALLELEKPAEYSSMVRPISLPDASHVFPAGKAIWVTGWGHTQYGGTNALILQKGEIRVINQTTCENLLPQLITPRMMCVGFLSGGVDSCDGDSGGPLSSVEADGRIFQAGVVSWGDGCAQRNKPGVYTRLPLFRDWIKENTGV ?
**A:** 19.1
